# system.under.test: EGFR (L858R/T790M/C797S) in BaF3-LTC cells (Homo sapiens, UniProt P00533, C797S/L858R/T790M)
# Construct: expressed in transfected cells; host or cells: BaF3-LTC
# Sequence (P00533 25-1210 T790M/C797S/L858R): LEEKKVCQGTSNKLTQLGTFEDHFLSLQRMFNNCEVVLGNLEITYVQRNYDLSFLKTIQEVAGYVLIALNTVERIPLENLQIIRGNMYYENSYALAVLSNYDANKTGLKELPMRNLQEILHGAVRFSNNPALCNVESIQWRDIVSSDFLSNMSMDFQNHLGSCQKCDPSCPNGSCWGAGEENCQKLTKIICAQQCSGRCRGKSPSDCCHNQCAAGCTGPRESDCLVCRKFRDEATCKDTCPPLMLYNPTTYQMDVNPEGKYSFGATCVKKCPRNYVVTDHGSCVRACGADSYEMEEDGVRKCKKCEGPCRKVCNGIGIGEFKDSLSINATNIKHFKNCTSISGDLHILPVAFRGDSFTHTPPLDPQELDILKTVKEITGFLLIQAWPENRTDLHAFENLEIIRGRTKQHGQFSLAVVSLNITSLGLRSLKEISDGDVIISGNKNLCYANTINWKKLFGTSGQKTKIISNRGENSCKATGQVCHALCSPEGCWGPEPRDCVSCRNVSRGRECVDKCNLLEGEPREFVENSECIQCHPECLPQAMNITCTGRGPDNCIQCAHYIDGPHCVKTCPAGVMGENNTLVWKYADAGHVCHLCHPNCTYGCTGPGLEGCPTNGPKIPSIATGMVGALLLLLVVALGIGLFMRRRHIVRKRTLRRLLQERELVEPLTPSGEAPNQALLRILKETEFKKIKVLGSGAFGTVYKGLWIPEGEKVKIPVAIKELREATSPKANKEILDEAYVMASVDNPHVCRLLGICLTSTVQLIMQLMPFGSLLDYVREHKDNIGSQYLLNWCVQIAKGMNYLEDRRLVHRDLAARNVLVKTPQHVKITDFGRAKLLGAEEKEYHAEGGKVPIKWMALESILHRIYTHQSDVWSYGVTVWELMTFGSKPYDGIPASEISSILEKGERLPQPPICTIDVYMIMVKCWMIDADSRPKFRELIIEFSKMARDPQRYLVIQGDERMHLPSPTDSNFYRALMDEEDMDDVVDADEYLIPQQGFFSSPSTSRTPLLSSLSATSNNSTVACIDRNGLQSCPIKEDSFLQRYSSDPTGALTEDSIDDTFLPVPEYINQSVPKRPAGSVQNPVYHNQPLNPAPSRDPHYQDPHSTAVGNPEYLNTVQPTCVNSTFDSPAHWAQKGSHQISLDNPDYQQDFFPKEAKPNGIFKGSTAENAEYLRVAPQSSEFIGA
# assay.summary: Cell degradation of EGFR, HTRF assay, BaF3-LTC cells
# Assay type: cell-based
# measurement.context: 16 h treatment, HTRF
observable: DC50 (nM)
Express the result in nM but write the number alone.

Example entries and their recorded answers appear below.
* CCc1cc(Nc2ncc(Br)c(Nc3ccc4nc(C)ccc4c3P3(=O)CC=CC3)n2)c(OC)cc1N1CCC(N2CCN(CCc3ccc4c(c3)oc(=O)n4C3CCC(=O)NC3=O)CC2)CC1 (stereo not shown) | 1.82
* CCc1cc(Nc2ncc(Br)c(Nc3ccccc3P3(=O)CCCC3)n2)c(OC)cc1N1CCC(N2CCN(CCc3cc(F)c(C4CCC(=O)NC4=O)c(F)c3)CC2)CC1 (stereo not shown) | 75.1
* CCc1cc(Nc2ncc(Br)c(Nc3ccccc3P3(=O)CCCC3)n2)c(OC)cc1N1CCC(N2CCN(C(=O)C3CN(c4cc(F)c(C5CCC(=O)NC5=O)c(F)c4)C3)CC2)CC1 (stereo not shown) | 19.8
* CCc1cc(Nc2ncc(Br)c(Nc3ccc4nc(C)ccc4c3P3(=O)CCCC3)n2)c(OC)cc1N1CCC(N2CCN(CCc3ccc4c(c3)oc(=O)n4C3CCC(=O)NC3=O)CC2)CC1 (stereo not shown) | 2.51

Could you please provide reported DC50 for CCc1cc(Nc2ncc(Br)c(Nc3ccccc3P3(=O)CCCC3)n2)c(OC)cc1N1CCC(N2CCN(C(=O)[C@@H]3CCN(c4cc(F)c(C5CCC(=O)NC5=O)c(F)c4)C3)CC2)CC1 (stereo partly shown) ? Thanks! 26.8

Could you please provide reported DC50 for CCc1cc(Nc2ncc(Br)c(Nc3ccc4nc(C)ccc4c3P3(=O)CCCC3)n2)c(OC)cc1N1CCC(N2CCN(CCc3cccc4c3n(C)c(=O)n4C3CCC(=O)NC3=O)CC2)CC1 (stereo not shown) ? Thanks! 3.46

Could you please provide reported DC50 for CCc1cc(Nc2ncc(Br)c(Nc3ccc4nc(C)ccc4c3P3(=O)CCCC3)n2)c(OC)cc1N1CCC(N2CCN(CCc3cccc4c3C(C)(C)C(=O)N4C3CCC(=O)NC3=O)CC2)CC1 (stereo not shown) ? Thanks! 7.52

Source: patent US20240131167A1
